target: UniProtKB P01112; experiment: Inhibitory [3H]GDP concentration against cellular p21 Ha-ras
Sequence (P01112 whole entry, looked up): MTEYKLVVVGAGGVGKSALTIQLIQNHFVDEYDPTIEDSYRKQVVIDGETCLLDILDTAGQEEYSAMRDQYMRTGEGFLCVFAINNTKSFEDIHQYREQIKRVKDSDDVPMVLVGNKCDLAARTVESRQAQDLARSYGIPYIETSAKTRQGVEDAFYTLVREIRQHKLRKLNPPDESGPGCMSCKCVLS
# key: entry, value: K rel
Respond with the number and no other words.

Nc1nc(O)c2ncn([C@H]3O[C@@H](COP(=O)(O)OP(=O)(O)OP(=O)(O)O)[C@H](O)[C@@H]3O)c2n1 : 1.1

Entry Cc1ccc(Nc2nc(O)c3ncn(C4O[C@@H](COP(=O)(O)OP(=O)(O)OP(=O)(O)O)[C@H](O)[C@@H]4O)c3n2)cc1 (some centres not stated) — recorded K rel = 1.14

Entry under test: O=P(O)(O)OP(=O)(O)OP(=O)(O)OC[C@@H]1OC(n2cnc3c(O)nc(Nc4ccc(Br)cc4)nc32)[C@@H](O)[C@H]1O (some centres not stated) . Its K rel was 2.28

Per the record, CCCCNc1nc(O)c2ncn(C3O[C@@H](COP(=O)(O)OP(=O)(O)OP(=O)(O)O)[C@H](O)[C@@H]3O)c2n1 (some centres not stated) has K rel of 0.59

Recorded result, CN1CN(C2O[C@@H](COP(=O)(O)OP(=O)(O)OP(=O)(O)O)[C@H](O)[C@@H]2O)c2nc(N)nc(O)c21 (some centres not stated) , K rel: 0.0024

response.value for Nc1nc(O)c2ncn(COC(CO)COP(=O)(O)OP(=O)(O)OP(=O)(O)O)c2n1 (configuration not stated) (field: K rel) = 0.0014

# K rel of O=P(O)(O)OP(=O)(O)OP(=O)(O)OC[C@@H]1OC(n2cnc3c(O)nc(Br)nc32)[C@@H](O)[C@H]1O (some centres not stated) = 0.04

====

target: GTPase HRas (Homo sapiens); test: Inhibitory [3H]GDP concentration against oncogenic Ha-ras protein (p21 Leu-61)
property.name: K rel
Give the figure only, with no unit attached.

CCCCNc1nc(O)c2ncn(C3O[C@@H](COP(=O)(O)OP(=O)(O)OP(=O)(O)O)[C@H](O)[C@@H]3O)c2n1 (stereo not given in full) : 0.68
O=P(O)(O)OP(=O)(O)OP(=O)(O)OC[C@@H]1OC(n2cnc3c(O)ncnc32)[C@@H](O)[C@H]1O (stereo not given in full) : 0.09
O=P(O)(O)OP(=O)(O)OP(=O)(O)OC[C@@H]1OC(n2cnc3c(O)nc(Nc4ccc(Br)cc4)nc32)[C@@H](O)[C@H]1O (stereo not given in full) : 2.1
O=P(O)(O)OP(=O)(O)OP(=O)(O)OC[C@@H]1OC(n2cnc3c(O)nc(NCCCCc4ccccc4)nc32)[C@@H](O)[C@H]1O (stereo not given in full) : 1.1
Cc1ccc(Nc2nc(O)c3ncn(C4O[C@@H](COP(=O)(O)OP(=O)(O)OP(=O)(O)O)[C@H](O)[C@@H]4O)c3n2)cc1 (stereo not given in full) : 1.34

Noted for Nc1nc(O)c2ncn(COC(CO)COP(=O)(O)OP(=O)(O)OP(=O)(O)O)c2n1 (stereo not given) : its K rel reads 0.0018

Measured K rel, Nc1nc(O)c2ncn(C3OC(COP(=O)(O)OP(=O)(O)OP(=O)(O)O)CC3O)c2n1 (stereo not given) : 0.85

The measured K rel associated with Nc1nc(O)c2ccn(C3O[C@@H](COP(=O)(O)OP(=O)(O)OP(=O)(O)O)[C@H](O)[C@@H]3O)c2n1 (stereo not given in full) reads 0.05

The compound Nc1nc2c(ncn2[C@H]2CC[C@@H](COP(=O)(O)OP(=O)(O)OP(=O)(O)O)O2)c(=O)[nH]1 showed K rel equal to 0.18

Short answer for Nc1nc2c(ncn2COCCOP(=O)(O)OP(=O)(O)OP(=O)(O)O)c(=O)[nH]1 : K rel was 0.0011

Memo: CN1CN(C2O[C@@H](COP(=O)(O)OP(=O)(O)OP(=O)(O)O)[C@H](O)[C@@H]2O)c2nc(N)nc(O)c21 (stereo not given in full) , reported K rel: 0.002

// CCCCc1ccc(Nc2nc(O)c3ncn(C4O[C@@H](COP(=O)(O)OP(=O)(O)OP(=O)(O)O)[C@H](O)[C@@H]4O)c3n2)cc1 (stereo not given in full) : K rel value = 6
